assayName: protease stability score; higher = more stable; yeast display proteolysis, trypsin and chymotrypsin;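 also: log10 excess protease needed over predicted unfolded state with 0 meaning unfolded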
For each record, write down the corresponding protease stability score.
One number for each entry.

Read the entry `DEEELKKHAHNLMRAMQTGDPDKVEEYFDPDAEYTVGDQTYRGREDMREWFEEVRRQVDHNQINDVRNSENHVNVDFVLNHNGTNHRVKFKAEIHNGRAKRASITTG` and write its reported protease stability score.
-0.271

Read the entry `DEENEDLLRKFVEALERNDEDKIMEQADPNAELRYGDKHIHGREKMRELVQNREKELRLDVKDFEVDVNNGHARITVENVQETNGRPTTTRYRIDASIHNGRLQKVNITSDK` and write its reported protease stability score.
0.287

Let's switch to this sequence now.
Read the entry `DENVLKRVKELLRTNNWEELANKADKDVEMRVGDKEWRGREQVVRAHKKLYDRVDHFKIDSMHWRNGHLVVNFVAEVNGKRAVMVLEMKVHNGRIKRITLEARDKDDEEFIEEALR` and write its reported protease stability score.
1.47

###

assayName: protease stability score; higher = more stable; yeast display proteolysis, trypsin and chymotrypsin;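 also: log10 excess protease needed over predicted unfolded state with 0 meaning unfolded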
measuredProperty: protease stability score

Read the entry `DEDEWRKIWTVFENNDPRKFKTMVDKHAHAEVGDTEFHGREQIQHYFERLIRRVDHIEYKSVNIHGDKMRAEVVLNVDGQNLRYVYEVTVHNGRIKMMRIRFTDEEVERQMKRIVK` and write its reported protease stability score.
0.209

Read the entry `DDEKRASKFAKKLVDAFKHGDPDRFSRMVDENVRFQVGDTQYHGREDAHNLMQELRDKVDHIHVRLTQLEVKGDKADVHMNLQYKHNGKNNDVRMRAVATDNNGRLLVTHFRIN` and write its reported protease stability score.
1.26

Read the entry `DDSMVRLAHTVIDNWRQGDEKKAMELLDPNARAEIGDKTIHGREQMSDEIRKQRTEQRLDIKVKRLEDRPGHVVIDAENTNSKNGRPRTNRVQIHLTAQGDKLKRLRIQNDS` and write its reported protease stability score.
-0.05

Read the entry `DEEDLKTMFDVMETGDPNQIADQFDKDARVVVGNRRVRGKEHIHTWAHEWRKNVDHQQVDSYEIKGDNARVDMQATINGTRFVFEIIIQVHNGKAKEMELRVRDEEEKKELDEVLE` and write its reported protease stability score.
-0.026

Read the entry `DEHKQQERAEDAVRVMQKGDERRFHEQLDENVRVTIGDREVHGRENAVEMFQEWVKRADHIRVDKLEVSNGVVNAHFEVEHNGQTRHQVMVVTYHNGEIQHMTIDRG` and write its reported protease stability score.
0.741

Let's switch to this sequence now.
Read the entry `DEDDMRRLEQLFRDIQTGNPERVRTLVDKNAELRVGDKRIKGREDVHRSVKKNRDEIRYSIDRLSADVKGDQVEMTVTAQKEHNGEPRSFKFTMTAKFRNGKLQHLDVHEEK` and write its reported protease stability score.
-0.297

###

assayName: protease stability score; higher = more stable; yeast display proteolysis, trypsin and chymotrypsin;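 also: log10 excess protease needed over predicted unfolded state with 0 meaning unfolded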
measuredProperty: protease stability score
One number for each entry.

Study these solved cases before continuing.
Read the entry `DEDKLTDKAHQIIRALETGDPDQIRNLAPPNVRFDYGDKRYHGREKAEERAKRERENIDHMEIKDFDVQGNKIQIRAVVEHNGRSREFVVTFEQNNGTLRFARMQSK` and write its reported protease stability score.
-0.342

Read the entry `DEKKVKELVDTLFDVMRKGDAERFRRYLKPDVRFEFGDITMQGPDQMEKYYRQDQKYGNEMHIKHKEVHGDRAKVTYDVEIKGTRATVEAEVHVRDEKVDEAKAEFDEDYKKYFTKG` and write its reported protease stability score.
-0.121

Read the entry `DEDTIRKVNRSFLEAVQHNDDDTLRRLLDEDAHAQYGDKTVHGKTEVVKMILTFVEQVDSLDYKSITATGDHVDVKVDAKHNGRTLDVRIIMRIENGRFTHVQFDIR` and write its reported protease stability score.
0.075

Read the entry `DEEAFKRFKEMVDAIRTGDRDRVRRLADPNARFEVGDKEVRGMDDYARKIKRKRDEIRMRYQIDSYSKSGDKVVARVQVEVEHNGQPSSHVYRAEFKNSNGRIVELNVKTDS` and write its reported protease stability score.
0.275

Read the entry `DEEDLREIVEEMRTGDEDKFNKNLDENVKVEIGDKTWQGREQAQKMHADVMRRADNVRLKEYEVHNGHVDADLTVEINGRSVEYVMKIEIDNGTMKRIEVTVRDETQEDIQRKVLE` and write its reported protease stability score.
0.309

New cases:
Read the entry `DEKQNQEMQDMLHTGDFKRIADLVDENAEWNYGDKTYHGRKTIKKFLDAFQHRADHVEVKRFDVHNGHVSANMQMNVDGRRIDFRVVVHVENGRVKEYRMDFTDPRQQREVERQVE` and write its reported protease stability score.
0.745

###

assayName: protease stability score; higher = more stable; yeast display proteolysis, trypsin and chymotrypsin;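 also: log10 excess protease needed over predicted unfolded state with 0 meaning unfolded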
measuredProperty: protease stability score
Give bare numbers.

Study these solved cases before continuing.
Read the entry `DEENKKRFDKFQEVQKQGDPKQLQSLMDPNVEWRVGDKNYHGRQEIAKDRIRVQREIRIEFNITHYENHNGRVKIHAEAKAKVNGRPQTYDYSFEVVVHNGKIKELNWRVDPEEVDRIES` and write its reported protease stability score.
0.67

Read the entry `DEELDKRIVDALHAIQKGDERRLRQLFDKNVSFKVGDEEYHGMENYAKDQKRRRDKIRVQLQSVDAKHQGDRAHVDVQRELDINGRPRTVRMIVVAHAKNGRVKNMSMNVDPKEIRELDT` and write its reported protease stability score.
-0.159

Read the entry `DEEVAKRMAETWVKAVEKGDTDQVQKVYKPNVEWVAGDEKHQGVEVVKKMMQKVKKLGVEFQLRKRKVEGGTVEFHYDMKNGNDTVTFTVRIDAEGGRVDRVEVEFDEKAQKVVKKG` and write its reported protease stability score.
0.183

Read the entry `DEEHVDQLLRKIFEILRNGDEKKLQDNFDPNVKATYGDRDITGMHSIAKTLAELFQRADHVNLRSMEVNGDKMRMQVSVQVDGRRATLEVNMRQHNGKVKELNLDPRRIKQFES` and write its reported protease stability score.
-0.169

Read the entry `DEEEAKKIVETVVKAVENGDVEKLKQMIKEGGKYKVINRERHGPEAVEEVIRLLQKAGVEMEFKEVRVEGNTATTRVEYRHGDKEAEVKVTATMQGGRIDEVRFKMSEEAQKMVEHG` and write its reported protease stability score.
1.08

List protease stability score for every entry below, keeping the order given.
1. DEEKKARQLLKRWLRAVSQNDPKKLSEQMDPNARVEYGDKELHGMHQIENWLREQLKHIDHIEIDVKDMTVNGNEAQVQFRFVNRHNGKEDTKEARMQAELHNGTVKVRRIRYS
2. DNSVKKIVEEFWKAVKHGDPDKLRELADPNAKFDVGDKVLHGRDRAAKFLHDQHNNARFDITSLRIRVTNGRADIDVKLHVEHNGEPKTSSAKVIVRVRNGRMTELKIRERS
3. DEERQDQAEEFWKILQTGDPDKAREELRDDVHVHVGDKVIHGMEDVDRDIERVRKQIRVEFDVRHIDSQGERISVEANIMENENGKPETAQLTVIIDMHNGRVVRIVFEKRK
4. DEEVAREMMTKWMRAVQKGDPDTVDKIYNPNGKWKAIDTERQGSEHIKKVMQRVKKQGVEFQVRKAKVEGNQAVVIYDFKLANKTVTFTVELRVQGGRVKEVRVEVDEEAKKDMKKG
5. NEEQLERVVKKWMEAVENADSKKVKELLKPDAEVQFGNRTVKGVDELVKYVKKFMDMGVELEVKEHKVEGGRARYQVVATYGGQTVTAQLTIQAKNGKIEKIEFRDNEEVQTLEKQG
6. DEKIVQAMKRYMDARQKGDPEDFNNLVDPNVRLNVGDKRVHGRERISEQIQREQRKMRIEIKHVEFRDQGEKVQLRVKYVVEINGRPRHASQRMEASLDDGKIKSIEIRVDEEVKKIEKV

0.389
0.637
1.96
1.14
0.988
-0.088

List protease stability score for every entry below, keeping the order given.
1. DERQNKEAFQRVAENITTNNPDEIMKQADPNVRFKYGDKEVHGRENVRDIVKEFNERVDRVQIDHVNVQGDKVNANATADVNGRKHRFQIHAVIKNGRLKFMQIHDQ
2. DEEKVRHQATRFFKALQTNDEDHAVKLADENVRIVIGDKTLRGREDLKDFVRKIKNQADRVELKSVEVHGNKAKLDFIVHVNGRRVKITMVIEVDNGRVSQLELNPHDVRKMEQ
3. DDEDDKRLADEFNTAVKQGDEDQLKNLMDEDATAEIGDKQLTGRENAAKHLVTLARHADHIQVNSVRVHDGRIRIDMRMIFNGQDHHYDIKIEVHNGRIKRMTVRNK
4. DRREAHKRAQEMVDNFRDNDKDRIVELADKDVHARIGDKRLHGREELATFLVELARRADRVEVKSIHVQGEQIEMDMQMTVDGRERTFTLRMTYHNGKLKHLEIDPDDLRKIES
5. EEKNQHVAQQWLEMVQNGDPRKAKQQFDKDARVKIGDKELNGREEIVRQFEREQREMRVDIKDYKIDVNGDKVTVRLHVEVQSNGTPTTRDYVVHMQVHNGRVQMVIFRSDG
6. DEEANKVIDRLLKAIKHNNPDQAQHNMDEDVRIRIGDQEINGREQAKKEIRKRNEKMRINIDEVTLNEHPNKVRIQYRYKVDVNGRPVRNSAHMEARVSNGKVKEIDVRVSEDQKRHEER
7. DRDKERKVIEKLMNALQNNDENQIRKLIDPNARLVYGDKELHGREEVVKFLVTLLNQVDRIEYKSYDFHNGHANIDFTLRFNGQNATFTMEIRVKNGRVDHITLDPQQINRMNS
8. DEEELQEMIHEFVKALETGNPDDIDKNADEDAKAVYGDKEVEGREQIKHQIKQLHDAIDHLEVKRVSFDNGRAHIHVEMTVNGERFTAKITVEAHNGKIKDVQFDPRLRNAYES

1. 1.09
2. 1.42
3. 1.6
4. 0.987
5. 0.747
6. 0.018
7. 0.885
8. 0.81

Just for reference, the NTF2 design screens of Basanta et al. (2020) is where these values come from.
